// data source = patent US11180494B2

Reported IC50 by item:
# assayed-target: human integrin αvβ6 (Homo sapiens (Human), UniProt P06756+P18564)
# Sequence (P06756 31-992): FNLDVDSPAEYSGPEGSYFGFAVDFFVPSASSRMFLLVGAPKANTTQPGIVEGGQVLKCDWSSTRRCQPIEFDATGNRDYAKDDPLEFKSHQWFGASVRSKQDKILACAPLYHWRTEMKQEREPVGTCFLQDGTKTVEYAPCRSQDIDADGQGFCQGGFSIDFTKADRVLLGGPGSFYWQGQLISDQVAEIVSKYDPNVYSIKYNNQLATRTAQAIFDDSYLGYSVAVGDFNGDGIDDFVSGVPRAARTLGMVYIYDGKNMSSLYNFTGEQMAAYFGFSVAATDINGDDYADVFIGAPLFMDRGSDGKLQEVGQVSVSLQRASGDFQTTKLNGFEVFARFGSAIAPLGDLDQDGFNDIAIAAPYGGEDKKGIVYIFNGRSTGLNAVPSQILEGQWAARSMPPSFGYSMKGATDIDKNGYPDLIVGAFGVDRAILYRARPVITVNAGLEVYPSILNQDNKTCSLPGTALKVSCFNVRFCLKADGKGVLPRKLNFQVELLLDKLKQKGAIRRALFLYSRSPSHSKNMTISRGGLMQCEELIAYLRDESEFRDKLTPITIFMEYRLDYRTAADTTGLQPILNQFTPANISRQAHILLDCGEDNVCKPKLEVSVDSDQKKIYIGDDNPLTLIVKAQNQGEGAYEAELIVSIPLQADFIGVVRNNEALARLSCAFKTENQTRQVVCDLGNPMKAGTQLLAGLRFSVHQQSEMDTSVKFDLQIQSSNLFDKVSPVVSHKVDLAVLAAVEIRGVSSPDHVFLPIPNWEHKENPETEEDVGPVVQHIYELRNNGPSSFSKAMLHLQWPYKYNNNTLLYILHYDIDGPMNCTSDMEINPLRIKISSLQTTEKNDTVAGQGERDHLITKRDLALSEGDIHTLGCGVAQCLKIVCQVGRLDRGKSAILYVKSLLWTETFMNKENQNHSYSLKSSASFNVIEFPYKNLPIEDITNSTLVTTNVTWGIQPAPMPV
# Sequence (P18564 22-707): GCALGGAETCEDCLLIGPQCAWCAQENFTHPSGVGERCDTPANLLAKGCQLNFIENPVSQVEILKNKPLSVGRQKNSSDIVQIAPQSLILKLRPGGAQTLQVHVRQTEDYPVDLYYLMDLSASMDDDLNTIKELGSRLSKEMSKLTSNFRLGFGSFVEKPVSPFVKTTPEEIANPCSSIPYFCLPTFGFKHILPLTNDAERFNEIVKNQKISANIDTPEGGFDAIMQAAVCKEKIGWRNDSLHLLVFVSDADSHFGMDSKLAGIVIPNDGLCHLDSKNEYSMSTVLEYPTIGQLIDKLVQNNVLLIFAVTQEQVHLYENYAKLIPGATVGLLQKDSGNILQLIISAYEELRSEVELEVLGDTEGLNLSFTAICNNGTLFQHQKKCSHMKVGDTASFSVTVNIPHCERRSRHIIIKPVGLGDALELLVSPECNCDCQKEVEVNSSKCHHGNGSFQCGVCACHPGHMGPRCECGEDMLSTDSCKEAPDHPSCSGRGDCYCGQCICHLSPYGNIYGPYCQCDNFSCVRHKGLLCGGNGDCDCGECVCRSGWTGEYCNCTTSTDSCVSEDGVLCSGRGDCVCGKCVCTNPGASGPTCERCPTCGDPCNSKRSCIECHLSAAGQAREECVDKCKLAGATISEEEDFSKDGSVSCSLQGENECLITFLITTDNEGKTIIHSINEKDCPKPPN
# test-details: Proximity-based integrin receptor binding assay (ALPHASCREEN) for inhibitor potency
# condition: inhibition of binding of TGF-b1 LAP to human integrin αvβ6; values given in ranges

Past entries and their recorded results:
molecule: O=C(N[C@@H](CCO[C@H]1C[C@H](CCc2ccc3c(n2)NCCC3)C1)C(=O)O)c1cccc(Cl)c1
reported-measurement: < 50 nM
--
molecule: O=C(N[C@@H](CCO[C@H]1C[C@H](CCc2ccc3c(n2)NCCC3)C1)C(=O)O)c1ccccc1N1CCOCC1
reported-measurement: 50 to 250 nM
--
molecule: O=C(N[C@@H](CCO[C@H]1C[C@H](CCc2ccc3c(n2)NCCC3)C1)C(=O)O)C1CCc2ccccc21 (single isomer, unassigned) [111**,††]
reported-measurement: < 50 nM
--
molecule: O=C(N[C@@H](CCO[C@H]1C[C@H](CCc2ccc3c(n2)NCCC3)C1)C(=O)O)c1ccc(Cl)c(Cl)c1
reported-measurement: 50 to 250 nM
--
molecule: CN(C(=O)N[C@@H](CCO[C@H]1C[C@H](CCc2ccc3c(n2)NCCC3)C1)C(=O)O)C(C)(C)C
reported-measurement: 50 to 250 nM

Could you share which IC50 value was measured for CC(C)(CC#N)C(=O)NC(CCO[C@H]1C[C@H](CCc2ccc3c(n2)NCCC3)C1)C(=O)O (stereo partly shown) [Compound 108] ?
< 50 nM

Any idea what its IC50 is? The molecule is "CC(C)(C)OC(=O)NCC1(C(=O)N[C@@H](CCO[C@H]2C[C@@H](CCc3ccc4c(n3)NCCC4)C2)C(=O)O)CCOCC1"
< 50 nM

###

# assayed-target: human integrin αvβ6 (Homo sapiens (Human), UniProt P06756+P18564)
# test-details: Proximity-based integrin receptor binding assay (ALPHASCREEN) for inhibitor potency
# condition: inhibition of binding of TGF-b1 LAP to human integrin αvβ6; values given in ranges
Items are presented alongside their recorded IC50.

Consider the reported IC50 for these compounds:
compound: CC(C)(C)c1cc(N[C@@H](CCO[C@H]2C[C@H](CCc3ccc4c(n3)NCCC4)C2)C(=O)O)ncn1
measured-parameter: IC50
reported-measurement: 50 to 250 nM
--
compound: O=C(N[C@@H](CCO[C@H]1C[C@@H](CCc2ccc3c(n2)NCCC3)C1)C(=O)O)c1ccc(F)cc1
measured-parameter: IC50
reported-measurement: < 50 nM
--
compound: O=C(NC(CCOCCCCc1ccc2c(n1)NCCC2)C(=O)O)c1c(Cl)cccc1Cl (stereo not shown)
measured-parameter: IC50
reported-measurement: 50 to 250 nM
--
compound: Cc1ccc2c(c1)N(C(=O)C1(C(=O)N[C@@H](CCO[C@H]3C[C@H](CCc4ccc5c(n4)NCCC5)C3)C(=O)O)CC1)CC2
measured-parameter: IC50
reported-measurement: 50 to 250 nM
--
compound: O=C(NC(CCO[C@H]1C[C@H](CCc2ccc3c(n2)NCCC3)C1)C(=O)O)c1ccc(C2CC2)cc1 (stereo partly shown)
measured-parameter: IC50
reported-measurement: 250 to 1000 nM

Request the reported IC50 associated with "O=C(N[C@@H](CCO[C@H]1C[C@@H](CCc2ccc3c(n2)NCCC3)C1)C(=O)O)c1cccc(F)c1Cl"
< 50 nM

Could you share which IC50 value was measured for "O=C(N[C@@H](CCO[C@H]1C[C@H](CCc2ccc3c(n2)NCCC3)C1)C(=O)O)c1cc(F)cc(Cl)c1" ?
< 50 nM
